- ASSAYED TARGET: murine iNOS (Mus musculus)
- METHOD: NOS enzyme inhibition assay, iNOS
- Format: biochemical
- RUN CONDITIONS: murine iNOS, KM 8.2 μM; Ki = IC50/(1 + [S]/KM); Table 2
EXPERIMENTAL ENDPOINT: pKi
One number for each entry, as −log10 of the molar value.

>  <STRUCTURE>
Cc1cc(N)nc(C[C@@H]2CNC[C@@H]2OCCCCOc2cc(F)cc(Cl)c2)c1.Cl.Cl

>  <pKi>
4.91

$$$$

Please report pKi for every entry that follows.
1. Cc1cc(N)nc(C[C@@H]2CNC[C@@H]2OCCCCOc2cc(F)cc(F)c2)c1.Cl.Cl
2. Cc1cc(N)nc(C[C@@H]2CNC[C@@H]2OCCCCCc2cc(F)cc(Cl)c2)c1

1: 4.42; 2: 3.97

Recall the recorded pKi for Cc1cc(N)nc(C[C@@H]2CNC[C@@H]2OCCCCCc2cccc(F)c2)c1.Cl.Cl with murine iNOS (Mus musculus) and state it.
4.08

----------
- ASSAYED TARGET: murine iNOS (Mus musculus)
- METHOD: NOS enzyme inhibition assay, iNOS
- Assay type: biochemical
- RUN CONDITIONS: ratio Ki iNOS to Ki nNOS; Table 1
Threshold rule: Selectivity n/i greater than or equal to 20 is 1.0; below that, 0.0.

Worked set:
>  <COMPOUND>
Cc1cc(N)nc(C[C@@H]2CNC[C@@H]2OCCCOc2cc(Cl)cc(C(F)(F)F)c2)c1 [25e]

>  <LABEL VALUE>
1.0

$$$$
>  <COMPOUND>
Cc1cc(N)nc(C[C@@H]2CNC[C@@H]2OCCCOc2cc(F)cc(C(F)(F)F)c2)c1 [25c]

>  <LABEL VALUE>
0.0

$$$$
>  <COMPOUND>
Cc1cc(N)nc(C[C@@H]2CNC[C@@H]2OCCCOc2ccc(F)c(Cl)c2)c1 [25b]

>  <LABEL VALUE>
0.0

$$$$

Here's the next entry for you.
Reported Selectivity n/i reaches at least 20 for Cc1cc(N)nc(C[C@@H]2CNC[C@@H]2OCCCOc2cc(C(F)(F)F)cc(C(F)(F)F)c2)c1 [25f] ?
1.0

----------
- ASSAYED TARGET: murine iNOS (Mus musculus)
- METHOD: NOS enzyme inhibition assay, iNOS
- Assay type: biochemical
- RUN CONDITIONS: Table 2
Threshold rule: n/i, ratio of Ki (iNOS) to nNOS greater than or equal to 50 is met; below that, not met.

Worked set:
>  <MOLECULE>
Cc1cc(N)nc(C[C@H]2CNC[C@H]2OCCCCNc2ccccn2)c1.Cl.Cl.Cl [Ji21]

>  <LABEL VALUE>
not met

$$$$
>  <MOLECULE>
Cc1cc(N)nc(C[C@@H]2CNC[C@@H]2OCCCCOc2cc(F)cc(Cl)c2)c1.Cl.Cl [Ji23]

>  <LABEL VALUE>
met

$$$$
>  <MOLECULE>
Cc1cc(N)nc(C[C@@H]2CNC[C@@H]2OCCC/C=C/c2cccc(F)c2)c1 [HH003]

>  <LABEL VALUE>
met

$$$$
>  <MOLECULE>
Cc1cc(N)nc(C[C@H]2CNC[C@H]2OCCCCCc2cccc(F)c2)c1.Cl.Cl [HH004]

>  <LABEL VALUE>
met

$$$$

Here's the next entry for you.
Reported n/i, ratio of Ki (iNOS) to nNOS reaches at least 50 for Cc1cc(N)nc(C[C@@H]2CNC[C@@H]2OCCCCNc2ccccn2)c1.Cl.Cl.Cl [Ji20] ?
met

----------
What n/i, ratio of Ki (iNOS) to nNOS was measured for each of the following?
- ASSAYED TARGET: murine iNOS (Mus musculus, UniProt P29477)
- METHOD: NOS enzyme inhibition assay, iNOS
- Format: biochemical
- RUN CONDITIONS: Table 2
Numbers only.

>  <STRUCTURE>
Cc1cc(N)nc(C[C@@H]2CNC[C@@H]2OCCCCOc2cc(F)cc(F)c2)c1.Cl.Cl

>  <n/i, ratio of Ki (iNOS) to nNOS>
32

$$$$

Please report n/i, ratio of Ki (iNOS) to nNOS for every entry that follows.
1. Cc1cc(N)nc(C[C@H]2CNC[C@H]2OCCC/C=C/c2cccc(F)c2)c1.Cl.Cl
2. Cc1cc(N)nc(C[C@@H]2CNC[C@@H]2OCCCCCc2cccc(N)c2)c1
3. Cc1cc(N)nc(C[C@@H]2CNC[C@@H]2OCCCCCc2cc(F)cc(Cl)c2)c1

9
619
461

Which measured n/i, ratio of Ki (iNOS) to nNOS value corresponds to Cc1cc(N)nc(C[C@@H]2CNC[C@@H]2OCCCCCc2cccc(F)c2)c1.Cl.Cl ?
91

----------
What n/e, ratio of Ki (eNOS) to nNOS was measured for each of the following?
- ASSAYED TARGET: bovine eNOS (Bos taurus, UniProt P29473)
- Sequence (P29473 whole entry): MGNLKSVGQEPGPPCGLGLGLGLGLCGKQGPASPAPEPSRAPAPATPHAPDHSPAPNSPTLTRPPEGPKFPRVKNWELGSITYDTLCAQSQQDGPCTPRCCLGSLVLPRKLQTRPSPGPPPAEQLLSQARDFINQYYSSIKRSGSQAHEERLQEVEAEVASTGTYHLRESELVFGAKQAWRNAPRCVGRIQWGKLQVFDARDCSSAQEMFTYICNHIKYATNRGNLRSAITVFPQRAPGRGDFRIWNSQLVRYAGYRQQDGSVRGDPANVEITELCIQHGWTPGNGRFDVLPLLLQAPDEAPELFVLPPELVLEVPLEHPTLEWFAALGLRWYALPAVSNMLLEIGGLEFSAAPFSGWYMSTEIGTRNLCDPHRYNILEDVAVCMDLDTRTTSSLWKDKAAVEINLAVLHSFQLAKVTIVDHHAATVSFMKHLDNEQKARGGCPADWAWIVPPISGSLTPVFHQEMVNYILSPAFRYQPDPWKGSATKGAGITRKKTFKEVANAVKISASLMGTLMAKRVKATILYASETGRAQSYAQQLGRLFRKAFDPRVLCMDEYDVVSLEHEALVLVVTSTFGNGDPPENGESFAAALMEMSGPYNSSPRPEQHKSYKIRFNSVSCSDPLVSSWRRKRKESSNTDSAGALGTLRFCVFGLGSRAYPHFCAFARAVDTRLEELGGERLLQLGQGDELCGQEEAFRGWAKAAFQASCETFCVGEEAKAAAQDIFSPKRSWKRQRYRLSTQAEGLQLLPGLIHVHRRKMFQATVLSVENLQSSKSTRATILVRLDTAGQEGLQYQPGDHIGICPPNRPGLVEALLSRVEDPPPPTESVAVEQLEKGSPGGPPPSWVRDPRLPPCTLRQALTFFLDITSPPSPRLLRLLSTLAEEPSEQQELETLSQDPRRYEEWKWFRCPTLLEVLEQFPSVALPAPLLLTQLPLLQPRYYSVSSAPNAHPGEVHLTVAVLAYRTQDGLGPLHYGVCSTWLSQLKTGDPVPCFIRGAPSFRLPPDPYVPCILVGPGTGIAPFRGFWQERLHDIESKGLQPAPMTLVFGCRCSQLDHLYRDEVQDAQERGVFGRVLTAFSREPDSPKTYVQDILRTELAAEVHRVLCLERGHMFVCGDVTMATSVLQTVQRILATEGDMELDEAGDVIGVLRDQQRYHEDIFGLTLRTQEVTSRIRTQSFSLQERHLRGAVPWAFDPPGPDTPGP
- METHOD: NOS enzyme inhibition assay, eNOS
- Format: biochemical
- RUN CONDITIONS: Table 2
Give bare numbers.

Answered cases to consult:
>  <STRUCTURE>
Cc1cc(N)nc(C[C@@H]2CNC[C@@H]2OCCCCNc2ccccn2)c1.Cl.Cl.Cl

>  <EXPERIMENTAL ENDPOINT>
n/e, ratio of Ki (eNOS) to nNOS

>  <RESULT>
154

$$$$
>  <STRUCTURE>
Cc1cc(N)nc(C[C@@H]2CNC[C@@H]2OCCCCOc2cc(F)cc(F)c2)c1.Cl.Cl

>  <EXPERIMENTAL ENDPOINT>
n/e, ratio of Ki (eNOS) to nNOS

>  <RESULT>
122

$$$$
>  <STRUCTURE>
Cc1cc(N)nc(C[C@@H]2CNC[C@@H]2OCCCCCc2cccc(N)c2)c1

>  <EXPERIMENTAL ENDPOINT>
n/e, ratio of Ki (eNOS) to nNOS

>  <RESULT>
1117

$$$$
>  <STRUCTURE>
Cc1cc(N)nc(C[C@@H]2CNC[C@@H]2OCCC/C=C/c2cccc(F)c2)c1

>  <EXPERIMENTAL ENDPOINT>
n/e, ratio of Ki (eNOS) to nNOS

>  <RESULT>
121

$$$$
>  <STRUCTURE>
Cc1cc(N)nc(C[C@H]2CNC[C@H]2OCCCCNc2ccccn2)c1.Cl.Cl.Cl

>  <EXPERIMENTAL ENDPOINT>
n/e, ratio of Ki (eNOS) to nNOS

>  <RESULT>
157

$$$$

Please report n/e, ratio of Ki (eNOS) to nNOS for every entry that follows.
1. Cc1cc(N)nc(C[C@@H]2CNC[C@@H]2OCCCCCc2cc(F)cc(Cl)c2)c1
2. Cc1cc(N)nc(C[C@@H]2CNC[C@@H]2OCCCCOc2cc(F)cc(Cl)c2)c1.Cl.Cl
3. Cc1cc(N)nc(C[C@H]2CNC[C@H]2OCCCCCc2cccc(F)c2)c1.Cl.Cl
4. Cc1cc(N)nc(C[C@@H]2CNC[C@@H]2OCCCCCc2cccc(F)c2)c1.Cl.Cl
5. Cc1cc(N)nc(C[C@H]2CNC[C@H]2OCCC/C=C/c2cccc(F)c2)c1.Cl.Cl

[155, 37, 4, 37, 4]

----------
What log10(Ki) was measured for each of the following?
- ASSAYED TARGET: rat nNOS (Rattus norvegicus, UniProt P29476)
- Sequence (P29476 whole entry): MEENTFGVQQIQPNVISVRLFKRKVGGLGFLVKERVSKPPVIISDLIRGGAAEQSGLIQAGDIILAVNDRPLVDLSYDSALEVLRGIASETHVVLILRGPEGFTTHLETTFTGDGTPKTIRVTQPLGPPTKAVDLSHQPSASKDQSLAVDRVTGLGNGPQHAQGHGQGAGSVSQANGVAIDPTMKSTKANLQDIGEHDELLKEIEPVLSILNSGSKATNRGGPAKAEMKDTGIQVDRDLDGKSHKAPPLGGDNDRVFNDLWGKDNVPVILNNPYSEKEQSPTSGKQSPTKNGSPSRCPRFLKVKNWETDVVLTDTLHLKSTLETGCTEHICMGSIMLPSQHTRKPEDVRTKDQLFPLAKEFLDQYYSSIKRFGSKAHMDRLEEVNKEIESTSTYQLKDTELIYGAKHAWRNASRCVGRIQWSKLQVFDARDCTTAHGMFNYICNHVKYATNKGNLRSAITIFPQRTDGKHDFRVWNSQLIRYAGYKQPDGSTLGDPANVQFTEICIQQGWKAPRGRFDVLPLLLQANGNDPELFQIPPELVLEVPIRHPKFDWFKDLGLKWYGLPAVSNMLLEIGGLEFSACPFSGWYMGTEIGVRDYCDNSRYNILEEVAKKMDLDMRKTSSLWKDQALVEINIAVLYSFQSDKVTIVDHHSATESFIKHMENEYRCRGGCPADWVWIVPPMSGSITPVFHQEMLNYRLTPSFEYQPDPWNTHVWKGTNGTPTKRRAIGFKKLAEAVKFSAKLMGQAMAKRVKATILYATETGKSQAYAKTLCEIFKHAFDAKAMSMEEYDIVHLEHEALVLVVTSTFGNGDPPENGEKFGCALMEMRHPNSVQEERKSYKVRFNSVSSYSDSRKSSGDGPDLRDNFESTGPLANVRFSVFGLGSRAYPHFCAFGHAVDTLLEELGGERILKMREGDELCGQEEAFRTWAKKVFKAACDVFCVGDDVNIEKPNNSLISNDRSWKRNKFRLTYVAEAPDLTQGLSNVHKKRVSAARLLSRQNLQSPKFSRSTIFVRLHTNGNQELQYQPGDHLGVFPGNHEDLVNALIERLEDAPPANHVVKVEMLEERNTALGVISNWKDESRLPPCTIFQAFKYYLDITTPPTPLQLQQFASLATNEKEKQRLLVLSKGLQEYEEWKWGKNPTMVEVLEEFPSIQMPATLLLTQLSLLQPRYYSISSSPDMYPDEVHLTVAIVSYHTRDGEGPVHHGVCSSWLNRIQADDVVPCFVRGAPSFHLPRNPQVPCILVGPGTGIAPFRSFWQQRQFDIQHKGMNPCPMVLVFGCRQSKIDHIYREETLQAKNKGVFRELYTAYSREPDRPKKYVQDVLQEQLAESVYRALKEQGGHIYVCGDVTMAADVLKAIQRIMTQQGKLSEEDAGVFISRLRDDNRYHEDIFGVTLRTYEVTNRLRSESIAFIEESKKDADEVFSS
- METHOD: NOS enzyme inhibition assay, nNOS
- Format: biochemical
- RUN CONDITIONS: rat nNOS, KM 1.3 μM; Ki = IC50/(1 + [S]/KM); Table 2
Values are log10 of Ki in nM.

>  <STRUCTURE>
Cc1cc(N)nc(C[C@H]2CNC[C@H]2OCCCCCc2cccc(F)c2)c1.Cl.Cl

>  <log10(Ki)>
3.96

$$$$
>  <STRUCTURE>
Cc1cc(N)nc(C[C@@H]2CNC[C@@H]2OCCCCNc2ccccn2)c1.Cl.Cl.Cl

>  <log10(Ki)>
0.95

$$$$
>  <STRUCTURE>
Cc1cc(N)nc(C[C@H]2CNC[C@H]2OCCC/C=C/c2cccc(F)c2)c1.Cl.Cl

>  <log10(Ki)>
4.19

$$$$

Please report log10(Ki) for every entry that follows.
1. Cc1cc(N)nc(C[C@H]2CNC[C@H]2OCCCCNc2ccccn2)c1.Cl.Cl.Cl
2. Cc1cc(N)nc(C[C@@H]2CNC[C@@H]2OCCC/C=C/c2cccc(F)c2)c1
3. Cc1cc(N)nc(C[C@@H]2CNC[C@@H]2OCCCCCc2cccc(F)c2)c1.Cl.Cl
4. Cc1cc(N)nc(C[C@@H]2CNC[C@@H]2OCCCCOc2cc(F)cc(Cl)c2)c1.Cl.Cl
5. Cc1cc(N)nc(C[C@@H]2CNC[C@@H]2OCCCCOc2cc(F)cc(F)c2)c1.Cl.Cl

1. 1.56
2. 2.80
3. 2.96
4. 2.07
5. 3.08

Recall the recorded log10(Ki) for Cc1cc(N)nc(C[C@@H]2CNC[C@@H]2OCCCCCc2cc(F)cc(Cl)c2)c1 with rat nNOS (Rattus norvegicus, UniProt P29476) and state it.
2.36

All figures here come from patent US8557552B2.
